These measurements were taken from PubChem BioAssay AID1159580.

Assay: chemical genetic growth profiling, strain panel (AID 1159580);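 also: tested at 20 µM; growth read once vehicle control cultures reached saturation at 30 °C; lower values mean less growth of the strain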
Conditions: S. cerevisiae deletion strains, growth OD, locus YER016W, strain bim1
Screen size: about 5,500 compounds; about 2,000 (36%) were called active. Roughly 18% stayed inconclusive and do not appear here. Rule as the data show it: active = normalized growth mostly below about 0.91 (no sharp cut-off); inconclusive = no clear call, values can overlap the other calls; inactive = mostly above about 0.92. Some of the results follow.
# output must be one of active, inactive

Ask | Which outcome was assigned to COc1ccc(C(=O)CC(=O)c2ccc(C(C)(C)C)cc2)cc1 in this test?
Reply | inactive

Ask | Which outcome was assigned to CCN(CCCc1ccccc1)CCCc1ccccc1 in this test?
Reply | inactive

Ask | Which outcome was assigned to CC(CN(C)C)CN1c2ccccc2CCc2ccccc21 (configuration not stated) in this test?
Reply | inactive

Ask | Which outcome was assigned to O=c1cc(-c2ccccc2)oc2cc(O)c(O)c(O)c12 in this test?
Reply | active

Ask | Which outcome was assigned to NCC(CC(=O)O)c1ccc(Cl)cc1 (configuration not stated) in this test?
Reply | inactive

Ask | Which outcome was assigned to CCCCS(=N)(=O)CCC(N)C(=O)O (configuration not stated) in this test?
Reply | inactive

Ask | Which outcome was assigned to COc1cc(C)c(C(=O)Oc2cc(C)c(C(=O)O)c(O)c2C)c(OC)c1C in this test?
Reply | inactive

Ask | Which outcome was assigned to COc1c2ccccc2nc2occc12 in this test?
Reply | inactive

Ask | Which outcome was assigned to CC(=O)O[C@H]1C[C@@H](OC(C)=O)C(C)(C)C2CC(=O)[C@]3(C)C(CC[C@@]4(C)[C@H](c5ccoc5)OC(=O)[C@H]5O[C@]543)[C@]21C (some centres not stated) in this test?
Reply | inactive

Ask | Which outcome was assigned to C[C@@H]1O[C@@H](O[C@H]2C[C@@H](O)[C@]3(CO)C4C(CC[C@]3(O)C2)[C@@]2(O)CC[C@H](C3=CC(=O)OC3)[C@@]2(C)C[C@H]4O)[C@H](O)[C@H](O)[C@H]1O (some centres not stated) in this test?
Reply | inactive

Ask | Which outcome was assigned to CN(C(=O)CN(CCO)CC(=O)N(C)C(C)(C)Cc1ccccc1)C(C)(C)Cc1ccccc1 in this test?
Reply | inactive

Ask | Which outcome was assigned to CC(=O)Nc1nnc(S(N)(=O)=O)s1 in this test?
Reply | inactive

Ask | Which outcome was assigned to COc1c2ccoc2nc2c(OC)c(OCC(O)C(C)(C)O)ccc12 (configuration not stated) in this test?
Reply | inactive

Ask | Which outcome was assigned to COc1cc(S(C)=O)ccc1-c1nc2ncccc2[nH]1 (configuration not stated) in this test?
Reply | inactive

Ask | Which outcome was assigned to NC(=O)c1ncn(C2O[C@H](CO)[C@@H](O)[C@H]2O)c1N (some centres not stated) in this test?
Reply | inactive

Ask | Which outcome was assigned to C=C1C2CC[C@@]3(C)[C@H](c4ccoc4)OC(=O)C[C@]13O[C@H]1CC(=O)C(C)(C)C(CC(=O)OC)[C@@]21C (some centres not stated) in this test?
Reply | inactive

Ask | Which outcome was assigned to COc1ccc(C(=O)N2CCCC2=O)cc1 in this test?
Reply | inactive

Ask | Which outcome was assigned to CNC(=O)Oc1ccc2c(c1)[C@]1(C)CCN(C)[C@@H]1N2C in this test?
Reply | inactive

Ask | Which outcome was assigned to CCCCC[C@H](CC(=O)NO)C(=O)N[C@H](C(=O)N1CCC[C@H]1CO)C(C)C in this test?
Reply | inactive

Ask | Which outcome was assigned to CN1CCN(C2=Nc3ccccc3Oc3ccc(Cl)cc32)CC1 in this test?
Reply | inactive

Ask | Which outcome was assigned to COc1cc([C@H]2Oc3cc([C@H]4Oc5cc(O)cc(O)c5C(=O)[C@@H]4O)ccc3O[C@@H]2CO)ccc1O in this test?
Reply | inactive

Ask | Which outcome was assigned to C=Cc1c(C)c2[n-]c1=Cc1[n-]c(c(CC)c1C)C=c1[n-]c3c(c1C)C(=O)C(C(=O)[O-])C=3c1[n-]c(c(C)c1CCC(=O)[O-])C=2.[Cu] (configuration not stated) in this test?
Reply | active

Ask | Which outcome was assigned to NS(=O)(=O)c1cc2c(cc1Cl)NC(C1CC3C=CC1C3)NS2(=O)=O (configuration not stated) in this test?
Reply | inactive

Ask | Which outcome was assigned to CCOC(=O)[C@H](CCc1ccccc1)N[C@@H](C)C(=O)N1Cc2ccccc2C[C@H]1C(=O)O in this test?
Reply | inactive

Ask | Which outcome was assigned to CC(CN1c2ccccc2Sc2ccccc21)N(C)C (configuration not stated) in this test?
Reply | inactive

Ask | Which outcome was assigned to CNCCCN1c2ccccc2CCc2ccccc21 in this test?
Reply | inactive

Ask | Which outcome was assigned to C[C@@H]1CC2C3C[C@H](F)C4=CC(=O)C=C[C@]4(C)[C@@]3(F)[C@@H](O)C[C@]2(C)[C@@]1(O)C(=O)COC(=O)C(C)(C)C (some centres not stated) in this test?
Reply | inactive

Ask | Which outcome was assigned to CC(CN(C)C)CN1c2ccccc2Sc2ccccc21 (configuration not stated) in this test?
Reply | inactive

Ask | Which outcome was assigned to CN(C)N=Nc1nc[nH]c1C(N)=O in this test?
Reply | inactive

Ask | Which outcome was assigned to Clc1ccc2c(c1)C(N1CCNCC1)=Nc1ccccc1O2 in this test?
Reply | inactive

Ask | Which outcome was assigned to C=C1C2=CC(=O)O[C@@H](c3ccoc3)[C@]2(C)CCC1[C@@]1(C)C=CC(=O)C(C)(C)[C@@H]1CC(=O)OC (some centres not stated) in this test?
Reply | inactive

Ask | Which outcome was assigned to CC(=O)N=c1sc(S(N)(=O)=O)nn1C in this test?
Reply | inactive

Ask | Which outcome was assigned to C=C[C@H]1CN2CC[C@H]1C[C@@H]2[C@H](O)c1ccnc2ccccc12 in this test?
Reply | inactive

Ask | Which outcome was assigned to CCN(CC)C(C)CN1c2ccccc2Sc2ccccc21 (configuration not stated) in this test?
Reply | active

Ask | Which outcome was assigned to Nc1ccncc1 in this test?
Reply | inactive

Ask | Which outcome was assigned to CO[C@]12C[C@@H](COC(=O)c3cncc(Br)c3)CN(C)[C@@H]1Cc1cn(C)c3cccc2c13 in this test?
Reply | inactive

Ask | Which outcome was assigned to O=c1cc(-c2ccccc2)oc2cccc(O)c12 in this test?
Reply | inactive

Ask | Which outcome was assigned to OC[C@H]1OC([S-])[C@H](O)[C@@H](O)[C@@H]1O.[Au+] (some centres not stated) in this test?
Reply | inactive

Ask | Which outcome was assigned to N#C/C(=C\c1cccc(O)c1)C(=O)O in this test?
Reply | inactive

Ask | Which outcome was assigned to Nc1cc(C(Cl)=C(Cl)Cl)c(S(N)(=O)=O)cc1S(N)(=O)=O in this test?
Reply | inactive

Ask | Which outcome was assigned to C[C@@H]1CC2C3CCC4=CC(=O)C=C[C@]4(C)[C@@]3(F)[C@@H](O)C[C@]2(C)[C@H]1C(=O)CO (some centres not stated) in this test?
Reply | inactive

Ask | Which outcome was assigned to CC12CC3CC(C)(C1)CC(N)(C3)C2 in this test?
Reply | inactive
